# Test system: human Factor 7 mRNA
# protocol-text: Dose-dependent antisense inhibition of human Factor 7 in HepB3 cells, lipofectin
# Type: cell-based
# assay-setup: Table 7, 12.5 nM, approximately 16 hours
Strand notation (5' to 3'): a small letter for the sugar, then the base; units joined by * are phosphorothioate-linked, units joined directly phosphodiester-linked; [ ] holds rarer units or linkages, { } end groups; capitals alone tell only the bases. e = 2'-O-(2-methoxyethyl) (MOE); [5mC] = 5-methylcytosine; d = 2'-deoxy (DNA)
measured-metric: percent inhibition of Factor 7 (%)
Provide only the numeric value, understood in %.

1. 416446 (antisense eG*eG*eT*e[5mC]*eA*d[5mC]*dT*dG*d[5mC]*dA*dG*dT*dA*d[5mC]*dT*eG*e[5mC]*eT*e[5mC]*eA) [compound 416446]; 24

Please look up its percent inhibition of Factor 7: 416449 (antisense eT*eA*eG*eG*eT*dA*dT*dT*dT*dT*dT*d[5mC]*d[5mC]*dA*d[5mC]*eA*eT*eG*eG*eA) [compound 416449]
33

Please look up its percent inhibition of Factor 7: 407643 (antisense e[5mC]*eA*e[5mC]*eA*e[5mC]*dA*dT*dG*dG*dA*dG*dT*d[5mC]*dA*dG*e[5mC]*eA*eT*e[5mC]*eG) [compound 407643]
49

Please look up its percent inhibition of Factor 7: 416438 (antisense e[5mC]*eA*eG*eG*eA*dG*d[5mC]*d[5mC]*d[5mC]*d[5mC]*d[5mC]*dA*dT*dT*d[5mC]*eT*eG*eG*e[5mC]*eA) [compound 416438]
33

Please look up its percent inhibition of Factor 7: 416477 (antisense e[5mC]*eA*eG*e[5mC]*e[5mC]*dT*dG*dA*dG*dG*d[5mC]*d[5mC]*dA*dG*d[5mC]*eA*eG*eA*eT*e[5mC]) [compound 416477]
46

---

Listed below: percent inhibition of Factor 7 mRNA, relative to untreated control cells values for each entry.
# Tested on: human Factor 7 mRNA
# protocol-text: Dose-dependent antisense inhibition of human Factor 7 in HepB3 cells, electroporation
# Format: cell-based
# assay-setup: 12.5 μM, approx. 16 hours (Table 15, Example 7)
# Procedure: The gapmers were also transfected via electroporation and their dose-dependent inhibition of human Factor 7 mRNA was measured. […] After a treatment period of approximately 16 hours, RNA was isolated from the cells and Factor 7 mRNA levels were measured by quantitative real-time PCR. […] Factor 7 mRNA levels were adjusted according to total RNA content, as measured by RIBOGREEN®. […]
Strand notation (5' to 3'): a small letter for the sugar, then the base; units joined by * are phosphorothioate-linked, units joined directly phosphodiester-linked; [ ] holds rarer units or linkages, { } end groups; capitals alone tell only the bases. e = 2'-O-(2-methoxyethyl) (MOE); [5mC] = 5-methylcytosine; d = 2'-deoxy (DNA)
Provide only the numeric value, understood in %.

Examples with their reported percent inhibition of Factor 7 mRNA, relative to untreated control cells follow.
1) 407935 (antisense eA*eT*eG*e[5mC]*eA*dT*dG*dG*dT*dG*dA*dT*dG*d[5mC]*dT*eT*e[5mC]*eT*eG*eA) [compound 407935]; 67
2) 422183 (antisense eG*e[5mC]*eG*d[5mC]*d[5mC]*dA*d[5mC]*d[5mC]*d[5mC]*dG*d[5mC]*d[5mC]*dG*dG*d[5mC]*dT*d[5mC]*eT*eG*e[5mC]) [compound 422183]; 37
3) 422177 (antisense e[5mC]*e[5mC]*e[5mC]*dG*d[5mC]*d[5mC]*dG*dG*d[5mC]*dT*d[5mC]*dT*dG*d[5mC]*dT*d[5mC]*dA*eT*e[5mC]*e[5mC]) [compound 422177]; 29
4) 422228 (antisense eT*eG*d[5mC]*dA*dT*dG*dG*dT*dG*dA*dT*dG*d[5mC]*dT*dT*e[5mC]*eT*eG*eA*eA) [compound 422228]; 40

Please look up its percent inhibition of Factor 7 mRNA, relative to untreated control cells: 422252 (antisense e[5mC]*eG*d[5mC]*d[5mC]*dG*dG*d[5mC]*dT*d[5mC]*dT*dG*d[5mC]*dT*d[5mC]*dA*eT*e[5mC]*e[5mC]*e[5mC]*e[5mC]) [compound 422252]
26
